# SYSTEM_TESTED: GORASP2, Q9H8Y8
# PROTOCOL: holdup assay
# Set-up: key: below the threshold = too weak to quantify, mostly under pKd 3.1 to 4
# TEST_CONTEXT: plain residues with an end cap or a label only (N-terminal biotin on a linker: ado-ado)

| BINDER | pKd |
| --- | --- |
| ARGPPRESEV [FAM110D, Q8TAY7] | below the threshold |
| EPQYQPGENL [SRC, P12931] | below the threshold |
| PTPDLPQTRV [KLHDC7A, Q5VTJ3] | below the threshold |
